- Tested on: canine heart
- measurementConditions: 0.1 mg/kg i.v., 0 min, mean ± SE
Answer each item with its documented Mean arterial pressure.
Give just the numeric value; mmHg need not be written.

Exam item: Can you look up the measured Mean arterial pressure of COc1ccc(CCN(C)CCCC(C#N)(c2ccc(OC)c(OC)c2)C(C)C)cc1OC (racemic) [80/20S] for me?
Marked response: 96

Exam item: Find the recorded Mean arterial pressure belonging to COc1ccc(CCN(C)CCCC(C#N)(c2ccc(OC)c(OC)c2)C(C)C)cc1OC (racemic) [20/80S] and report it.
Marked response: 92

Exam item: What value of measured Mean arterial pressure is listed for COc1ccc(CCN(C)CCC[C@](C#N)(c2ccc(OC)c(OC)c2)C(C)C)cc1OC [R-verapamil, reference compound] ?
Marked response: 94

Exam item: I have this compound here, COc1ccc(CCN(C)CCCC(C#N)(c2ccc(OC)c(OC)c2)C(C)C)cc1OC (racemic) [90/10S] , and I need its recorded Mean arterial pressure.
Marked response: 94

Reference for the values: patent US5955500A
